experimentalSystem: STING (Homo sapiens, UniProt Q86WV6)
Sequence (Q86WV6 whole entry): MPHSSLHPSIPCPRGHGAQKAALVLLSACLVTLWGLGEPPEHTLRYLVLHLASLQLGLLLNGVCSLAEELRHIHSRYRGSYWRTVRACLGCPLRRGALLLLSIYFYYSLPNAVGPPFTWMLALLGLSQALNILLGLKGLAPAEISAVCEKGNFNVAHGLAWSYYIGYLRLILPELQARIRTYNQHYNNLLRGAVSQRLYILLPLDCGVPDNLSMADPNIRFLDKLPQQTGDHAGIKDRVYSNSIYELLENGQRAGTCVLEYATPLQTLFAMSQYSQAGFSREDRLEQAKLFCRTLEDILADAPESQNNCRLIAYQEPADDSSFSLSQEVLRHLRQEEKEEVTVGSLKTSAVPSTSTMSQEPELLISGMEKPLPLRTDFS
experimentNotes: Western Blot analysis for STING degradation in H596 cells
Assay type: cell-based
conditionDetails: 24h; reference protein beta-actin
measuredAttribute: DC50

- compound: "CCn1nc(C)cc1C(=O)N=c1n(C)c2cc(C(N)=O)ccc2n1CCC(CCn1c(=NC(=O)c2cc(C)nn2CC)n(C)c2cc(C(N)=O)ccc21)OCC(=O)NCCOCCOCCOCCOCCC(=O)N1CCN(C(=O)CCC(=O)NCCCCOc2cc(-c3scnc3C)ccc2CNC(=O)[C@@H]2C[C@@H](O)CN2C(=O)[C@@H](NC(=O)C2(F)CC2)C(C)(C)C)CC1 (stereo partly drawn)"
  result: "< 200 nM"
- compound: "CCn1nc(C)cc1C(=O)N=c1n(C)c2cc(C(N)=O)ccc2n1CCC(CCn1c(=NC(=O)c2cc(C)nn2CC)n(C)c2cc(C(N)=O)ccc21)OCC(=O)NCCOCCOCCOCCOCCC(=O)NCCOCCOCCOCCOCC(=O)N[C@H](C(=O)N1C[C@H](O)C[C@H]1C(=O)NCc1ccc(-c2scnc2C)cc1)C(C)(C)C (stereo partly drawn)"
  result: "1000 to 5000 nM"
- compound: "CCn1nc(C)cc1C(=O)N=c1n(C)c2cc(C(N)=O)ccc2n1CCC(CCn1c(=NC(=O)c2cc(C)nn2CC)n(C)c2cc(C(N)=O)ccc21)OCC(=O)NCCOCCOCCOCCOCCC(=O)N1CCN(C(=O)CCOCCC(=O)NCCCCOc2cc(-c3scnc3C)ccc2CNC(=O)[C@@H]2C[C@@H](O)CN2C(=O)[C@@H](NC(=O)C2(F)CC2)C(C)(C)C)CC1 (stereo partly drawn)"
  result: "< 200 nM"

====

The entries below are paired with their reported pIC50.
experimentalSystem: C-terminal domain (CTD) of human STING (Homo sapiens, UniProt Q86WV6)
Sequence (Q86WV6 155-379): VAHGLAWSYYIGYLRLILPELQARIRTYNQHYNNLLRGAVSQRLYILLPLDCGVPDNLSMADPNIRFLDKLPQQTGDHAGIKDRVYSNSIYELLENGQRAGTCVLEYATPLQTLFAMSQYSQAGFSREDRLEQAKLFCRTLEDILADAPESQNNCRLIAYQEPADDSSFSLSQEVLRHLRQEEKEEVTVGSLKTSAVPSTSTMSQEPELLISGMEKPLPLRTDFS
experimentNotes: STING binding FP assay II
Parameters: recombinant human STING protein (155-379)
conditionDetails: 7 nM STING
pIC50: −log10 of the molar value.

- molecule: "CCn1nc(C)cc1C(=O)N=c1n(C)c2cc(C(N)=O)ccc2n1CCC(CCn1c(=NC(=O)c2cc(C)nn2CC)n(C)c2cc(C(N)=O)ccc21)OCC(=O)NCCOCCOCCOCCOCC(=O)N[C@H](C(=O)N1C[C@H](O)C[C@H]1C(=O)NCc1ccc(-c2scnc2C)cc1)C(C)(C)C (some centres unmarked)"
  pIC50: 8.62
- molecule: "CCn1nc(C)cc1C(=O)N=c1n(C)c2cc(C(N)=O)ccc2n1CCC(CCn1c(=NC(=O)c2cc(C)nn2CC)n(C)c2cc(C(N)=O)ccc21)OCC(=O)NCCOCCOCCNc1cccc2c1C(=O)N(C1CCC(=O)NC1=O)C2=O (centres unmarked)"
  pIC50: 8.68

====

experimentalSystem: STING (Homo sapiens, UniProt Q86WV6)
experimentNotes: Inhibition of STING-agonist-induced IFN-β release in H596 cells (H596 STING inhibition assay)
Type: cell-based
conditionDetails: 24h with compound, then 0.3 µM GSK STING agonist, 6h; ELISA
The entries below are paired with their reported EC50.

- molecule: "CCn1nc(C)cc1C(=O)N=c1n(C)c2cc(C(N)=O)ccc2n1CCC(CCn1c(=NC(=O)c2cc(C)nn2CC)n(C)c2cc(C(N)=O)ccc21)OCC(=O)NCCOCCOCCOCCOCCC(=O)NCCOCCOCCOCCOCCNc1cccc2c1C(=O)N(C1CCC(=O)NC1=O)C2=O (stereo not shown)"
  EC50: "1000 to 5000 nM"
- molecule: "CCn1nc(C)cc1C(=O)N=c1n(C)c2cc(C(N)=O)ccc2n1CCC(CCn1c(=NC(=O)c2cc(C)nn2CC)n(C)c2cc(C(N)=O)ccc21)OCC(=O)NCCOCCOCCOCCOCCC(=O)N1CCN(C(=O)CCC(=O)NCCCCOc2cc(-c3scnc3C)ccc2CNC(=O)[C@@H]2C[C@@H](O)CN2C(=O)[C@@H](NC(=O)C2(F)CC2)C(C)(C)C)CC1 (stereo partly shown)"
  EC50: "< 200 nM"
- molecule: "CCn1nc(C)cc1C(=O)N=c1n(C)c2cc(C(N)=O)ccc2n1CCC(CCn1c(=NC(=O)c2cc(C)nn2CC)n(C)c2cc(C(N)=O)ccc21)OCC(=O)NCCOCCOCCOCCOCCC(=O)NCCCCC(=O)N[C@H]1C[C@@H](C(=O)N[C@@H]2CCCc3ccccc32)N(C(=O)[C@@H](NC(=O)[C@H](C)NC)C2CCCCC2)C1 (stereo partly shown)"
  EC50: "200 to 1000 nM"
- molecule: "CCn1nc(C)cc1C(=O)N=c1n(C)c2cc(C(N)=O)ccc2n1CCC(CCn1c(=NC(=O)c2cc(C)nn2CC)n(C)c2cc(C(N)=O)ccc21)OCC(=O)NCCOCCOCCOCCOCCC(=O)N1CCN(C(=O)CCOCCC(=O)NCCCCOc2cc(-c3scnc3C)ccc2CNC(=O)[C@@H]2C[C@@H](O)CN2C(=O)[C@@H](NC(=O)C2(F)CC2)C(C)(C)C)CC1 (stereo partly shown)"
  EC50: "< 200 nM"
